Values were extracted from patent US20140356358A1.

Please provide measured ELISA score for the entries that follow.
target: T1, human neonatal Fc receptor (hFcRn) (human, UniProt P55899 24-290; P61769 21-119); assay: phage ELISA pH 6;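 further: higher score means stronger binding and above about 3 to 5 exceeds background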
T1 construct: Biotinylated in the ELISA, Octet and yeast assays; also called human FcRn; huFcRn
T1 sequence (P55899 24-290 limits assumed, chain 1 of 2): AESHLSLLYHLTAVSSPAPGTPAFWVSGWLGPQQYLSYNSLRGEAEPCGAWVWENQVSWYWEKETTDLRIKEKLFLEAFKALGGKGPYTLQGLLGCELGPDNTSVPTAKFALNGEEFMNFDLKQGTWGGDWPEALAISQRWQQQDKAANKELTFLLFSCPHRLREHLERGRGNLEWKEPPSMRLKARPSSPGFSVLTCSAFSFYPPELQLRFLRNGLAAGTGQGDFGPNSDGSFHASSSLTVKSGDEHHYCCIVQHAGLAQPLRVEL
T1 sequence (P61769 21-119 limits assumed, chain 2 of 2): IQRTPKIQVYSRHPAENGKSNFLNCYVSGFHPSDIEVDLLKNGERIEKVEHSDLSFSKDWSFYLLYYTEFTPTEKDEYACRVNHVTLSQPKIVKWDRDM
API doc: respond with a numeric literal and nothing else, no unit.

Would you kindly share the measured ELISA score for variant Fc-fragment Fc-5-112 (other, soluble elsewhere) EPKSCDKTHTCPPCPAPELLGGPSVFLFPPKPKDTLMISRTPEVTCVVVDVSHEDPEVKFNWYVDGVEVHNAKTKPREEQYNSTYRVVSVLTVLHQDWLNGKEYKCKVSNKALPAPIEKTISKAKGQPREPQVYTLPPSRDELTKNQVSLTCLVKGFYPSDIAVEWESNGGCALYPTNCGGGQPENNYKTTPPVLDSDGSFFLYSKLTVDKSRWQQGNVFSCSVMHEALHNHYTQKSLSLSPGK ?
62.7

What would you report for L5 isolate with insertion SEQ ID NO: 420 (other) EPKSCDKTHTCPPCPAPELLGGPSVFLFPPKPKDTLMISRTPEVTCVVVDVSHEDPEVKFNWYVDGVEVHNAKTKPREEQYNSTYRVVSVLTVLHQDWLNGKEYKCKVSNKALPAPIEKTISKAKGQPREPQVYTLPPSRDELTKNQVSLTCLVKGFYPSDIAVEWESNGGCHGTKQFCGGGQPENNYKTTPPVLDSDGSFFLYSKLTVDKSRWQQGNVFSCSVMHEALHNHYTQKSLSLSPGK ?
61

What would you report for variant Fc-fragment Fc-5-73 (other, soluble elsewhere) EPKSCDKTHTCPPCPAPELLGGPSVFLFPPKPKDTLMISRTPEVTCVVVDVSHEDPEVKFNWYVDGVEVHNAKTKPREEQYNSTYRVVSVLTVLHQDWLNGKEYKCKVSNKALPAPIEKTISKAKGQPREPQVYTLPPSRDELTKNQVSLTCLVKGFYPSDIAVEWESNGGCAQQWHHEYCGGGQPENNYKTTPPVLDSDGSFFLYSKLTVDKSRWQQGNVFSCSVMHEALHNHYTQKSLSLSPGK ?
54.5

What would you report for L5 isolate with insertion SEQ ID NO: 478 (other) EPKSCDKTHTCPPCPAPELLGGPSVFLFPPKPKDTLMISRTPEVTCVVVDVSHEDPEVKFNWYVDGVEVHNAKTKPREEQYNSTYRVVSVLTVLHQDWLNGKEYKCKVSNKALPAPIEKTISKAKGQPREPQVYTLPPSRDELTKNQVSLTCLVKGFYPSDIAVEWESNGGCDLPNEMCGGGQPENNYKTTPPVLDSDGSFFLYSKLTVDKSRWQQGNVFSCSVMHEALHNHYTQKSLSLSPGK ?
36.1

What would you report for L5 isolate with insertion SEQ ID NO: 438 (other) EPKSCDKTHTCPPCPAPELLGGPSVFLFPPKPKDTLMISRTPEVTCVVVDVSHEDPEVKFNWYVDGVEVHNAKTKPREEQYNSTYRVVSVLTVLHQDWLNGKEYKCKVSNKALPAPIEKTISKAKGQPREPQVYTLPPSRDELTKNQVSLTCLVKGFYPSDIAVEWESNGGCKSMISMCGGGQPENNYKTTPPVLDSDGSFFLYSKLTVDKSRWQQGNVFSCSVMHEALHNHYTQKSLSLSPGK ?
55.2
